SUBJECT_OF_TEST: PI3K alpha (Homo sapiens, UniProt P42336)
Construct: p85(iSH2) fusion partner (see partner chain) (N); His tag (C); Tn5 (Trichoplusia ni) or TiniPro insect cells
Sequence (P42336 with tags, fused parts or gaps limits assumed): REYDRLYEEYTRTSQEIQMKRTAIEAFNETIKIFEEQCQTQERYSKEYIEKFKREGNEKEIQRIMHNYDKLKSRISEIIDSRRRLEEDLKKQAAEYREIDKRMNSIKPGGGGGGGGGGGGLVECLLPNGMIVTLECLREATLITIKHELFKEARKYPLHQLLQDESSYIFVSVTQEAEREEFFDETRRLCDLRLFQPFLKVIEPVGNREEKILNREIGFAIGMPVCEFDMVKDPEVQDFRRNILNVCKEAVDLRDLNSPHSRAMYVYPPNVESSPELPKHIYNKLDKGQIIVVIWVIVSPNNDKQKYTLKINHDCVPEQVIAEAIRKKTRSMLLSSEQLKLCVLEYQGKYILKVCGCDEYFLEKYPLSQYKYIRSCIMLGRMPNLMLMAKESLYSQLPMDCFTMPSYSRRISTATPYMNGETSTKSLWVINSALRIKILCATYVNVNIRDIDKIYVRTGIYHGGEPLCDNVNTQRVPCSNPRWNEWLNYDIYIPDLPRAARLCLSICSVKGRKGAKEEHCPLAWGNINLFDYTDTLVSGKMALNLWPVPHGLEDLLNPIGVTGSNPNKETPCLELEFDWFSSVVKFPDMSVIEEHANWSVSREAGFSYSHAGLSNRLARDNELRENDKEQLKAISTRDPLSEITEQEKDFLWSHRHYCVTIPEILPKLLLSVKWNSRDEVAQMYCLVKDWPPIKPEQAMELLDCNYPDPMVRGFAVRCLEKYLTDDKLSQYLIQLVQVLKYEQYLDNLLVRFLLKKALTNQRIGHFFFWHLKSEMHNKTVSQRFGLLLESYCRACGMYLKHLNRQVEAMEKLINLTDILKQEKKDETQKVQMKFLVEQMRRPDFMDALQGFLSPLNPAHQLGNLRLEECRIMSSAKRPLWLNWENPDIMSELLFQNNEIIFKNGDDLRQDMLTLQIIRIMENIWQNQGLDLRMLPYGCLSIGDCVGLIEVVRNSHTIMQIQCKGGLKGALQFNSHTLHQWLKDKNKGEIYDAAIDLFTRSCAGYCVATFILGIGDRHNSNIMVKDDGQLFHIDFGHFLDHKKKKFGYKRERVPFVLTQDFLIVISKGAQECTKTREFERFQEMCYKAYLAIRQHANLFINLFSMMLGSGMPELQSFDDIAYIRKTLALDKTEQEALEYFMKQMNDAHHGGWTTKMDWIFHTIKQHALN
EXPERIMENTAL_PROTOCOL: PI3K alpha kinase assay (Kinase-Glo luminescence)
OBSERVATION_TYPE: IC50 (nM)

Check out these entries, answers already filled in.
CCNc1cc(-c2ccc3ncc4c(c3c2)n(-c2c(C)nn(CCOC)c2C)c(=O)n4C)cnc1C	42
Cc1nn(C(C)C)cc1-n1c(=O)n(C)c2cnc3ccc(-c4ccc(N5CCC5)nc4)cc3c21	34
COc1ccc(-c2ccc3ncc4c(c3c2)n(-c2cn(C)nc2Cl)c(=O)n4C)cc1OC	9

a. Cc1nn(C)cc1-n1c(=O)n(C)c2cnc3ccc(-c4ccc(OCCCO)nc4)cc3c21
b. Cc1nn(C)cc1-n1c(=O)n(C)c2cnc3ccc(-c4cncc(OCC5CC5)c4)cc3c21
For the pair a and b , which member has the lower IC50 number? Identify your pick by its label. b

1. Cc1nn(C)cc1-n1c(=O)n(C)c2cnc3ccc(-c4cncc(N(C)C5CCC5)c4)cc3c21
2. CCc1ncc(-c2ccc3ncc4c(c3c2)n(-c2cn(C)nc2C)c(=O)n4C)cc1NC(C)C
For the pair 1 and 2 , which member has the lower IC50 number? Identify your pick by its label. 2

---

SUBJECT_OF_TEST: PI3K delta (Homo sapiens)
Construct: for the full-length p110-d subunit are generated and fused by overlapping PCR; p85(iSH2) fusion partner (see partner chain) (N); His tag (C); Tn5 (Trichoplusia ni) or TiniPro insect cells
EXPERIMENTAL_PROTOCOL: PI3K delta kinase assay (Kinase-Glo luminescence)
OBSERVATION_TYPE: IC50 (µM)

CCc1ncc(-c2ccc3ncc4c(c3c2)n(-c2cn(C)nc2C)c(=O)n4C)cc1N	0.006
CCn1cc(-n2c(=O)n(C)c3cnc4ccc(-c5cnc(COC)c(NC)c5)cc4c32)c(C)n1	0.016
CCOCc1cc(-c2ccc3ncc4c(c3c2)n(-c2cn(C(C)C)nc2C)c(=O)n4C)cnc1N	0.006
COCCNC(=O)c1cc(-c2ccc3ncc4c(c3c2)n(-c2cn(C)nc2C)c(=O)n4C)cnc1N	0.021
Cc1nn(C)cc1-n1c(=O)[nH]c2cnc3ccc(-c4cnc(N(C)C)nc4)cc3c21	0.029

A. COCc1cncc(-c2ccc3ncc4c(c3c2)n(-c2cn(C)nc2C)c(=O)n4C)c1
B. Cc1nn(C)cc1-n1c(=O)n(C)c2cnc3ccc(-c4cnc(N)c(C(F)(F)F)c4)cc3c21
Name the one with the greater IC50 value, either A or B as given. Identify your pick by its label. A
(A: 0.019 µM, B: 0.013 µM)

---

SUBJECT_OF_TEST: PI3K beta (Homo sapiens)
Construct: for the full-length p110-b subunit are generated and fused by overlapping PCR; p85(iSH2) fusion partner (see partner chain) (N); His tag (C); Tn5 (Trichoplusia ni) or TiniPro insect cells
Sequence (P42338 with tags, fused parts or gaps limits assumed): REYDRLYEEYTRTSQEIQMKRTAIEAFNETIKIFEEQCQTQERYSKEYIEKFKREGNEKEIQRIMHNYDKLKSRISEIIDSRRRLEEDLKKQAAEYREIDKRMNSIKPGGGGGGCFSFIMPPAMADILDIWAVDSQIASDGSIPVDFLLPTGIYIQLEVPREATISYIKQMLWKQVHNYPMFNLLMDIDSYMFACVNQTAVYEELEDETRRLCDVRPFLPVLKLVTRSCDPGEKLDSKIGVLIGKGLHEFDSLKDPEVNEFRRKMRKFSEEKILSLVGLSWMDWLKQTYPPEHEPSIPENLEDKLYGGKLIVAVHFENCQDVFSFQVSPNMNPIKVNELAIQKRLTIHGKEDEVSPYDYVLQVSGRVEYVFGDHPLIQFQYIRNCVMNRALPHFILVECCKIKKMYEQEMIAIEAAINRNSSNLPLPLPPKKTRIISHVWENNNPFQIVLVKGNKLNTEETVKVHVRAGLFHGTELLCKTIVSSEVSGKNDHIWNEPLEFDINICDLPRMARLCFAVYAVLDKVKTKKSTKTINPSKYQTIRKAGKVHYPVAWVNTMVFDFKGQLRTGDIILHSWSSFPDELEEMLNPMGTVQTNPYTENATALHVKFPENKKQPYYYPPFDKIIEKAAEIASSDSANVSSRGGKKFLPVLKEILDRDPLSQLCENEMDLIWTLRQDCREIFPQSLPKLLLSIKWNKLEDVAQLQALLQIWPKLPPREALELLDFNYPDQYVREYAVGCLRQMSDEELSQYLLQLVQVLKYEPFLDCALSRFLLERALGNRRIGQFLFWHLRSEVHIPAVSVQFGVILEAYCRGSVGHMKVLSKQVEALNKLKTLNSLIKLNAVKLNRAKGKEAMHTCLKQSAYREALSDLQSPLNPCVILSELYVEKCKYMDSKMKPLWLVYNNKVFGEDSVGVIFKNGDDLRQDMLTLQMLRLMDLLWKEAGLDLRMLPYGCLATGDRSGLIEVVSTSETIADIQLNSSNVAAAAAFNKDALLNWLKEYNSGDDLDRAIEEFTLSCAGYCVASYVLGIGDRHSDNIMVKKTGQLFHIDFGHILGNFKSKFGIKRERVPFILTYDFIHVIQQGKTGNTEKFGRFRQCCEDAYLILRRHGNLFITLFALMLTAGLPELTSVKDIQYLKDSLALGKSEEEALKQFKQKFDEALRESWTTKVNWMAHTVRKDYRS
EXPERIMENTAL_PROTOCOL: PI3K beta kinase assay (Kinase-Glo luminescence)
Protocol: In a more preferred assay, the kinase reaction is performed in a final volume of 10 μL per well of a low volume non binding CORNING, 384 well black plate (Cat. No. #3676). The final concentrations of ATP and phosphatidyl inositol (PI) in the assay are 1 μM and 10 μg/mL respectively. […] IC50 is determined by a four parameter curve fitting routine that comes along with “excel fit”. […] Alternatively, IC50 values are calculated using idbsXLfit model 204, which is a 4 parameter logistic model.
OBSERVATION_TYPE: IC50 (nM)

Check out these entries, answers already filled in.
COCc1cc(-c2ccc3ncc4c(c3c2)n(-c2cn(C)nc2Cl)c(=O)n4C)cnc1OC	6
CCn1cc(-n2c(=O)n(C)c3cnc4ccc(-c5cnc(CO)c(NC)c5)cc4c32)c(C)n1	21
CC(C)Oc1cncc(-c2ccc3ncc4c(c3c2)n(-c2cn(C)nc2Cl)c(=O)n4C)c1	5

P. Cc1nn(C)cc1-n1c(=O)n(C)c2cnc3ccc(-c4cnc5c(ccn5C)c4)cc3c21
Q. CCOc1cc(-c2ccc3ncc4c(c3c2)n(-c2cn(CC)nc2C)c(=O)n4C)ccc1OC
R. CCn1cc(-n2c(=O)n(C)c3cnc4ccc(-c5cnc(OC)nc5OC)cc4c32)c(C)n1
S. COc1ccc(-c2ccc3ncc4[nH]c(=O)n(-c5cn(C)nc5C)c4c3c2)cn1
Rank the 4 compounds: largest IC50 first, smallest last. Use the labels to give the requested order. P, R, S, Q
(P: 206 nM, R: 119 nM, S: 38 nM, Q: 15 nM)

P. Cc1ncc(-c2ccc3ncc4c(c3c2)n(-c2cn(C)nc2C)c(=O)n4C)cc1NS(C)(=O)=O
Q. CNc1ncc(-c2ccc3ncc4c(c3c2)n(-c2cn(C(C)C)nc2C)c(=O)n4C)cc1COC
For the pair P and Q , which member has the lower IC50 number? Identify your pick by its label. P
(P: 10 nM, Q: 71 nM)

---

SUBJECT_OF_TEST: PI3K delta (Homo sapiens, UniProt O00329)
Construct: for the full-length p110-d subunit are generated and fused by overlapping PCR; p85(iSH2) fusion partner (see partner chain) (N); His tag (C); Tn5 (Trichoplusia ni) or TiniPro insect cells
Sequence (O00329 with tags, fused parts or gaps limits assumed): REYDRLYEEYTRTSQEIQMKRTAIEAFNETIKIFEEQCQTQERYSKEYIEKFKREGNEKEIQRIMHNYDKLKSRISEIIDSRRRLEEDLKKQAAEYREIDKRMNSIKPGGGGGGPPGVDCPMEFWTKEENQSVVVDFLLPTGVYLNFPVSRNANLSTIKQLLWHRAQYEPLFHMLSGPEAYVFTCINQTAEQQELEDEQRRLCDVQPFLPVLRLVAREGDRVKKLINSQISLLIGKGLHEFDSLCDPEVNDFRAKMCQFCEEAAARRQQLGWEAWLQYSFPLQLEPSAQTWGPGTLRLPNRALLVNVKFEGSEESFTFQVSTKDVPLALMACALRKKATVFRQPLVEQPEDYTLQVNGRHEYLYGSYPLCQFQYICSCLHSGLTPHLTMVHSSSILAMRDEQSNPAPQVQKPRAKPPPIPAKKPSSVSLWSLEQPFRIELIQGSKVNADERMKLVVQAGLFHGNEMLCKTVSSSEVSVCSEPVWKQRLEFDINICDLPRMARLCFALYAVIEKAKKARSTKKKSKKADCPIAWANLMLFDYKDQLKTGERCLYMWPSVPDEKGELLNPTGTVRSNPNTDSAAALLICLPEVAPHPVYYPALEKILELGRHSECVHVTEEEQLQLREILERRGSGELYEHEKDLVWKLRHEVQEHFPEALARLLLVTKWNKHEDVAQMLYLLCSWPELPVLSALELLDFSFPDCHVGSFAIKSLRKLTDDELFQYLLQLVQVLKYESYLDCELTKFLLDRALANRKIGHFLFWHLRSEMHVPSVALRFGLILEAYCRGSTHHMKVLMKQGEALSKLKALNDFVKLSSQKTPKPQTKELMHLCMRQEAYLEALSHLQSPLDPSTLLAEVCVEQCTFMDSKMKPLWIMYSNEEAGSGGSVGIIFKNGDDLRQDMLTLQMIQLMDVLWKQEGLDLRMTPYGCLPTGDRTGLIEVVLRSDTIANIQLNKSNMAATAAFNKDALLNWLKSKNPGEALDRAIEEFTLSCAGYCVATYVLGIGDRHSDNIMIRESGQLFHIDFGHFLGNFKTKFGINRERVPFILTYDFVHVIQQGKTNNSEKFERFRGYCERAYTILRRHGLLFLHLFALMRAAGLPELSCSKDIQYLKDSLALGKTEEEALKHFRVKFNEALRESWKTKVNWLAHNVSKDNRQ
EXPERIMENTAL_PROTOCOL: PI3K delta kinase assay (Kinase-Glo luminescence)
OBSERVATION_TYPE: IC50 (nM)

COc1ncc(-c2ccc3ncc4c(c3c2)n(-c2cn(C)nc2C)c(=O)n4C)cc1N	9
CCOc1ccc(-c2ccc3ncc4c(c3c2)n(-c2c(C)nn(CC(=O)N(C)C)c2C)c(=O)n4C)cn1	721
COCCOc1cncc(-c2ccc3ncc4c(c3c2)n(-c2cn(C)nc2C)c(=O)n4C)c1	91

a. COc1ccc(-c2ccc3ncc4c(c3c2)n(-c2cn(C)nc2C)c(=O)n4C)cc1OC
b. COc1cc(-c2ccc3ncc4c(c3c2)n(-c2cn(C)nc2C)c(=O)n4C)cnc1CO
Name the one with the greater IC50 value, either a or b as given. Identify your pick by its label. b
(b: 17 nM, a: 5 nM)

---

Tested on: PKB Ser473 phosphorylation in Rat1-myr-HA-p110 alpha cells
EXPERIMENTAL_PROTOCOL: Reverse protein array assay, PKB Ser473 phosphorylation in Rat1-myr-p110 alpha cells
Type: cell-based
TEST_SETTINGS: 0.5 h, pAkt Ser473, 30 minutes compound incubation, read-out: p-PKB IC50
OBSERVATION_TYPE: IC50 (nM)

[2H]C([2H])([2H])Nc1ncc(-c2ccc3ncc4c(c3c2)n(-c2c(C)nn(C)c2C)c(=O)n4C)cc1C(F)(F)F	40
COc1ccc(-c2ccc3ncc4c(c3c2)n(-c2cn(C(C)C)nc2C)c(=O)n4C)cc1OC	16
Cc1nn(C)cc1-n1c(=O)n(C)c2cnc3ccc(-c4cncc(N(C)C)c4)cc3c21	20

a. Cc1nn(C(C)C)cc1-n1c(=O)n(C)c2cnc3ccc(-c4ccc(C(N)=O)nc4)cc3c21
b. Cc1nn(C)cc1-n1c(=O)n(C)c2cnc3ccc(-c4cnc(N)c(C(F)(F)F)c4)cc3c21
c. Cc1nn(C)cc1-n1c(=O)n(C)c2cnc3ccc(-c4cncc(OCC5CC5)c4)cc3c21
d. CCOCc1ncc(-c2ccc3ncc4c(c3c2)n(-c2cn(C)nc2Cl)c(=O)n4C)cc1OC
Order the entries by their reported IC50, beginning at the minimum. Use the labels to give the requested order. b, c, a, d

---

SUBJECT_OF_TEST: PI3K delta (Homo sapiens)
Construct: for the full-length p110-d subunit are generated and fused by overlapping PCR; p85(iSH2) fusion partner (see partner chain) (N); His tag (C); Tn5 (Trichoplusia ni) or TiniPro insect cells
EXPERIMENTAL_PROTOCOL: PI3K delta kinase assay (Kinase-Glo luminescence)
pIC50: −log10 of the molar value.
OBSERVATION_TYPE: pIC50

CCOc1cc(-c2ccc3ncc4c(c3c2)n(-c2cn(C)nc2C)c(=O)n4C)cnc1CO	8.15
Cc1nn(C)cc1-n1c(=O)n(C)c2cnc3ccc(-c4cncc(OC(CF)CF)c4)cc3c21	8.10
Cc1c(-n2c(=O)n(C)c3cnc4ccc(-c5ccc(N(C)C)nc5)cc4c32)cnn1C	7.05
Cc1nn(C)cc1-n1c(=O)n(C)c2cnc3ccc(-c4ccc(N)nc4)cc3c21	7.82
COc1ncc(-c2ccc3ncc4c(c3c2)n(-c2cn(C)nc2C)c(=O)n4C)cn1	7.42

a. Cn1nccc1-n1c(=O)n(C)c2cnc3ccc(-c4ccnc(F)c4)cc3c21
b. COc1ccc(-c2ccc3ncc4c(c3c2)n(-c2c(C)nn(C)c2C)c(=O)n4C)cc1OC
c. CNc1cc(-c2ccc3ncc4c(c3c2)n(-c2cn(C)nc2Cl)c(=O)n4C)cnc1CO
Rank the 3 molecules: largest pIC50 first, smallest last. Use the labels to give the requested order. c, b, a
(c: 8.40, b: 7.74, a: 6.09)

Data provenance is patent US20140005163A1.
